tested on: M14 melanoma; experiment: NCI tumour cell line growth inhibition, 48 h
reported-property: TGI (µM)

{"compound": "CC(C)=CCC/C(C)=C/CC/C(C)=C/C1CCC(=O)C1(C)C (stereo not given)", "study-system": "M14 melanoma", "result-unit": "µM", "modifier-sign": "=", "experimental-result": 42.5}
{"compound": "COc1ccccc1N1CCN(CCCOc2ccc(C(=O)/C=C3/C(=O)Nc4ccccc43)cc2)CC1", "study-system": "M14 melanoma", "result-unit": "µM", "modifier-sign": "=", "experimental-result": 27}
{"compound": "OC[C@@H](O)[C@H](O)[C@@H](O)/C=N/Nc1ccc(Cl)nn1", "study-system": "M14 melanoma", "result-unit": "µM", "modifier-sign": ">", "experimental-result": 100}
{"compound": "CCCCN1CCC(O)(c2cc(C(=O)O)[nH]c2-c2cc(C)no2)C1=O (stereo not given)", "study-system": "M14 melanoma", "result-unit": "µM", "modifier-sign": ">", "experimental-result": 100}
{"compound": "CN(C)C1C(=O)C(C(N)=O)=C(O)C2(O)C(=O)C3=C(O)c4c(O)cccc4C(C)(O)C3CC12 (stereo not given)", "study-system": "M14 melanoma", "result-unit": "µM", "modifier-sign": ">", "experimental-result": 100}
{"compound": "C[C@]12CC/C(=N\\O)C=C1CC[C@@H]1[C@@H]2CC[C@]2(C)C(=N/O)/C(=C/c3ccncc3)C[C@@H]12", "study-system": "M14 melanoma", "result-unit": "µM", "modifier-sign": "=", "experimental-result": 34}
{"compound": "COc1c2occc2cc2ccc(=O)oc12", "study-system": "M14 melanoma", "result-unit": "µM", "modifier-sign": ">", "experimental-result": 100}
{"compound": "C#CCOC(=O)[C@@H](C)c1ccc2cc(OC)ccc2c1", "study-system": "M14 melanoma", "result-unit": "µM", "modifier-sign": ">", "experimental-result": 100}
{"compound": "COc1cc(OC)cc(C(=O)Cc2c(C(=O)c3ccccc3)c3ccccc3n2C(=O)c2ccccc2)c1", "study-system": "M14 melanoma", "result-unit": "µM", "modifier-sign": ">", "experimental-result": 100}
{"compound": "C[C@@H]1OC(=O)NN=C1c1ccc(-c2ccc(F)cc2)c(C(F)(F)F)c1", "study-system": "M14 melanoma", "result-unit": "µM", "modifier-sign": "=", "experimental-result": 21.6}

====

Listed below: TGI values for each entry.
tested on: NCI-H522 lung; experiment: NCI tumour cell line growth inhibition, 48 h
Square brackets hold non-standard residues; d marks the D form. Peptide text beside a SMILES is read from it. Phe(4-NO2) = N[CH](Cc1ccc([N+](=O)[O-])cc1)C(=O)O

{"compound": "CC(=Nc1ccccc1)C1=C(O)C(Cc2ccc(F)cc2)NC1=O (stereo unspecified)", "modifier-sign": "=", "TGI [µM]": 2.1}
{"compound": "Nc1nc(CC2(O)CCCCC2)cc(-c2ccccc2)n1", "modifier-sign": ">", "TGI [µM]": 100}
{"compound": "COC(=O)CCC(NC(=O)C(CCC(=O)OC)NC(=O)C(CCC(=O)OC)NC(=O)C(CCC(=O)OC)NC(=O)C(CCC(=O)OC)NC(=O)C(Cc1ccc([N+](=O)[O-])cc1)NC(=O)C(CCC(=O)OC)NC(=O)C(CCC(=O)OC)NC(=O)C(CCC(=O)OC)NC(=O)C(CCC(=O)OC)NC(=O)C(CCC(=O)OC)NC(C)=O)C(N)=O (stereo unspecified) (Ac-E(OMe)E(OMe)E(OMe)E(OMe)E(OMe)[Phe(4-NO2)]E(OMe)E(OMe)E(OMe)E(OMe)E(OMe)-NH2; configuration not given here)", "modifier-sign": ">", "TGI [µM]": 100}
{"compound": "Cc1ccc(-c2cc(=O)c3cc(C)c(C)c(C(=O)O)c3o2)cc1[N+](=O)[O-]", "modifier-sign": ">", "TGI [µM]": 100}
{"compound": "Clc1nc(-c2ccccc2)nc(Cl)c1Cl", "modifier-sign": "=", "TGI [µM]": 9.95}
{"compound": "N#Cc1ccc(NC(=O)Nc2nc3ccc(OC(F)(F)F)cc3s2)cc1", "modifier-sign": "=", "TGI [µM]": 3.09}
